- ASSAY COMMENT: stability in human hepatocytes
- Format: in vitro ADME
- REPORTED CONDITIONS: human, human hepatocytes (cryopreserved, suspension); from in vitro stability results
ENDPOINT NAME: half-life at 1 μM

Which value of half-life at 1 μM has been reported for Cc1cc(C(=O)N2Cc3cnn(C)c3Nc3ccccc32)ccc1CNC(=O)N1CCC[C@H]1C(=S)N(C)C [LIT-001] in the records?
> 2 h

---

- ASSAY COMMENT: lipophilicity LogD7.4 (octanol/PBS)
- Type: physicochemical
- REPORTED CONDITIONS: experimental, octanol/PBS pH 7.4
ENDPOINT NAME: logD
// no unit string in output, number only

Which value of logD has been reported for Cc1cc(C(=O)N2Cc3cnn(C)c3Nc3ccccc32)ccc1CNC(=O)N1CCC[C@H]1C(=S)N(C)C [LIT-001] in the records?
2

---

- ASSAY COMMENT: distribution and clearance after i.p. injection, LC-MS/MS
- Assay type: in vivo
- REPORTED CONDITIONS: brain, ip; rat, 10 mg/kg i.p., 60 min; read-out: concentration in brain
ENDPOINT NAME: concentration at 60 min (nM)
# output: bare number, implied unit nM

Which value of concentration at 60 min has been reported for Cc1cc(C(=O)N2Cc3cnn(C)c3Nc3ccccc32)ccc1CNC(=O)N1CCC[C@H]1C(=S)N(C)C [LIT-001] in the records?
1.6

---

- MEASUREMENT TARGET: CYP 2C19 (Homo sapiens, UniProt P33261)
- Sequence (P33261 whole entry): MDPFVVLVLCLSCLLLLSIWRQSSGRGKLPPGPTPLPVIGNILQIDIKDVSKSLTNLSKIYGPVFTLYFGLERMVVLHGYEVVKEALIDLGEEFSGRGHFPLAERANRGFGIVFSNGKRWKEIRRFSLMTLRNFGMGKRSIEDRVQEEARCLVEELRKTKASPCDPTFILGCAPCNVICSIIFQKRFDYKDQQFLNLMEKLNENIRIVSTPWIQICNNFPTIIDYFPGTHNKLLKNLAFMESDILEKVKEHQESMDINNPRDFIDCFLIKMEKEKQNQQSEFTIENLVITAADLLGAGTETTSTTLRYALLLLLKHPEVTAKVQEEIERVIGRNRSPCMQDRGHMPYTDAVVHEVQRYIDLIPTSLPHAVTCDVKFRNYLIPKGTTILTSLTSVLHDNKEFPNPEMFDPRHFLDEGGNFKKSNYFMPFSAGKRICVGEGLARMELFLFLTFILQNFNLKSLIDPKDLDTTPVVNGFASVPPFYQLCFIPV
ENDPOINT NAME: pIC50
Note on pIC50: it is the negative log10 of concentration, concentration in mol/L.

Find pIC50 (CYP 2C19 (Homo sapiens, UniProt P33261)) for the entry Cc1cc(C(=O)N2Cc3cnn(C)c3Nc3ccccc32)ccc1CNC(=O)N1CCC[C@H]1C(=S)N(C)C [LIT-001]
4.68

---

- ASSAY COMMENT: distribution and clearance after i.p. injection, LC-MS/MS
- Assay type: in vivo
- REPORTED CONDITIONS: brain, ip; rat, 10 mg/kg i.p., 300 min; read-out: concentration in brain
ENDPOINT NAME: concentration at 300 min

Which value of concentration at 300 min has been reported for Cc1cc(C(=O)N2Cc3cnn(C)c3Nc3ccccc32)ccc1CNC(=O)N1CCC[C@H]1C(=S)N(C)C in the records?
0.6 nM

---

- ASSAY COMMENT: distribution and clearance after i.p. injection, LC-MS/MS
- Type: in vivo
- REPORTED CONDITIONS: CSF, ip; rat, 10 mg/kg i.p., 300 min; read-out: concentration in CSF
ENDPOINT NAME: concentration at 300 min (nM)
# output: bare number, implied unit nM

Which value of concentration at 300 min has been reported for Cc1cc(C(=O)N2Cc3cnn(C)c3Nc3ccccc32)ccc1CNC(=O)N1CCC[C@H]1C(=S)N(C)C in the records?
1.5

---

- MEASUREMENT TARGET: hERG (Homo sapiens, UniProt Q12809)
- Sequence (Q12809 whole entry): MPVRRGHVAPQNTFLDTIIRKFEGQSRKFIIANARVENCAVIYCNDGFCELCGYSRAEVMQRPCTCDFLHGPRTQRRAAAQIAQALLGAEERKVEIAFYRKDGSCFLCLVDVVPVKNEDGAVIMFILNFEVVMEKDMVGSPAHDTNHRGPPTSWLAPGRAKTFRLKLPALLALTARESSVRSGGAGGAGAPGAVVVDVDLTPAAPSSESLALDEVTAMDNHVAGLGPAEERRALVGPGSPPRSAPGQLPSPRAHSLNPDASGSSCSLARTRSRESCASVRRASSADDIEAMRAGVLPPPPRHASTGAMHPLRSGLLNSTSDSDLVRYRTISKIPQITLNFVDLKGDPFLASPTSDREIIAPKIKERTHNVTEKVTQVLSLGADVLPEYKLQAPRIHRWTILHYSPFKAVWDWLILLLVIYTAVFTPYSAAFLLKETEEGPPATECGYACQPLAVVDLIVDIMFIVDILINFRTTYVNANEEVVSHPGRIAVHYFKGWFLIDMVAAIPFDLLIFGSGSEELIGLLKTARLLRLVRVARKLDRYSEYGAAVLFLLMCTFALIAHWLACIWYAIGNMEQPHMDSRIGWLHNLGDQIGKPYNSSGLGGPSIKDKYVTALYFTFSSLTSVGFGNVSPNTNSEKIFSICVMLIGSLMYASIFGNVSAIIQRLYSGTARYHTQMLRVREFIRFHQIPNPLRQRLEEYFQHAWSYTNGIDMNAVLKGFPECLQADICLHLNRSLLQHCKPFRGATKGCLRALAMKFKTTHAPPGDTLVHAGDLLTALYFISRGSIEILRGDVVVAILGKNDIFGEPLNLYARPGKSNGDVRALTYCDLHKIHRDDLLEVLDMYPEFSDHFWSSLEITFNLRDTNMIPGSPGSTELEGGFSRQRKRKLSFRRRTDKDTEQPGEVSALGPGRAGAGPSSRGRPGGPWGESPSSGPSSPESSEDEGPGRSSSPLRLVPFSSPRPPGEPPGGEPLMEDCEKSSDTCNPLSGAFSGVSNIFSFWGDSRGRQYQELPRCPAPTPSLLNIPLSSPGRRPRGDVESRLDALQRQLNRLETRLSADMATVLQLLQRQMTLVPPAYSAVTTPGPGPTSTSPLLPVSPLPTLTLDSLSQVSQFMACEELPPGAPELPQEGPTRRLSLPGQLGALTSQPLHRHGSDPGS
- ASSAY COMMENT: hERG inhibition, patch clamp method
- Format: cell-based
- REPORTED CONDITIONS: 10 μM
ENDPOINT NAME: inhibition at 10 µM (%)
# output: bare number, implied unit %

Which value of inhibition at 10 µM has been reported for Cc1cc(C(=O)N2Cc3cnn(C)c3Nc3ccccc32)ccc1CNC(=O)N1CCC[C@H]1C(=S)N(C)C [LIT-001] in the records?
10.6

Data credit: paper PMC7033278
